Each recorded value in this set is attributed to the supplement of paper PMC11865577.

Listed next: entries and their corresponding pull-down binding Z-score.
system: TO-3-N3-2 (biotin conjugate); experiment: pull-down binding Z-score (relative to library population); higher = stronger binding; conditions: RNA library: Library-2
Keep the answer to the number alone.

# count of solved cases: 3
>  <SEQUENCE CONTENT>
CUGGGUUCGGCUGCUACCCCAAA [hsa-mir-6768]

>  <pull-down binding Z-score>
0.195

$$$$
>  <SEQUENCE CONTENT>
CUAUACUGUUACUAGAUCAGGCAUUAGUGUCUGAUGUUGGUGAUAGUGCGG

>  <pull-down binding Z-score>
-0.622

$$$$
>  <SEQUENCE CONTENT>
GUCAUUACUUUCAAUAGC [hsa-mir-548p]

>  <pull-down binding Z-score>
-0.254

$$$$

Next, consider the following sequence.
Exercise: Tell me the measured pull-down binding Z-score of UGGCCCCGAUUUCAGCUAUGGUUA [SHAPE_invitro_SARS-CoV-2_Motif_146] , please.
Key: -0.0487

* * *

system: TO-3-N3-2 (biotin conjugate); assay: pull-down binding Z-score (relative to library population); higher = stronger binding; details: RNA library: Library-2
Criterion met means recorded pull-down binding Z-score is -0.4 or above; Criterion not met means it is below -0.4.

The examples below pair each entry with its known result.
>  <SEQUENCE CONTENT>
UCUUCAGGUUGGACAGCUGGUGCUGCAGCUUAUUAUGUGGGUUAUCUUCAACCUAGGA [DMSMaPseq_invitro_SARS-CoV-2_Multi_66_ComplexLevel_1]

>  <LABEL>
Criterion met

$$$$
>  <SEQUENCE CONTENT>
GUGGCUAAAUCUGAAUUUGACCGUGAUGCAGCCAU [DMSMaPseq_invitro_SARS-CoV-2_Motif_214]

>  <LABEL>
Criterion met

$$$$
>  <SEQUENCE CONTENT>
UGCUUUACUUUUAAUGGCA [hsa-mir-548k]

>  <LABEL>
Criterion met

$$$$

Exercise: Would you say CUUUAGUAAUUACCUAAAGAGACGUGUAGUCUUUAAUGGUGUUUCCUUUAG shows pull-down binding Z-score at minimum -0.4?
Key: Criterion not met

Exercise: // next record CAGACCAUGCCACAUCCGUCUG [hsa-mir-7152]
Key: Criterion not met

Exercise: Another: UCCACACGCAAGUUGUGGA
Key: Criterion not met

Exercise: Another sequence to look at: UGGUGGAGAUGGAGAGCCCUGAGCCUCCA [hsa-mir-6777]
Key: Criterion met

Exercise: Also need UCUUAAGAGAGGUGAUAAAAGUGUAUAUUACACUAGUAAUCCUACCACAUUCCACCUAGAUGGUGAAGUUAUCACCUUUGACAAUCUUAAGA , thanks.
Key: Criterion met

Exercise: And for UUUUUGCAUUACGUUCUAUGGCAAAA [hsa-mir-548g] ?
Key: Criterion met

* * *

test system: TO-3-N3-2 (biotin conjugate); assay: pull-down binding Z-score (relative to library population); higher = stronger binding; conditions: RNA library: Library-2
pull-down binding Z-score values for the sequences below.

>  <SEQUENCE CONTENT>
GUCUGCCAAGGUUUUGGCAGAC [hsa-mir-3913-2]

>  <MEASURED>
-0.539

$$$$
>  <SEQUENCE CONTENT>
UAUUCGCUUUAUUGACUUCGAAUA [hsa-mir-369]

>  <MEASURED>
-0.144

$$$$
>  <SEQUENCE CONTENT>
UGCUUGACCUGAAUGCUACAAGGCA [hsa-mir-103b-2]

>  <MEASURED>
-0.122

$$$$
>  <SEQUENCE CONTENT>
UGUAAAUCACAUAAACCACCCAUUAGUUUUCCAUUGUGUGCUAAUGGACAAGUUUUUGGUUUAUA

>  <MEASURED>
0.371

$$$$
>  <SEQUENCE CONTENT>
AAGCUGUGUGUGUCCAGC [hsa-mir-4732]

>  <MEASURED>
-0.101

$$$$

Exercise: Give TO-3-N3-2 (biotin conjugate) pull-down binding Z-score for CUUGGAAAACUUCAAG
Key: -0.265

* * *

system: TO-3-N3 (biotin conjugate); assay: pull-down binding Z-score (relative to library population); higher = stronger binding; conditions: RNA library: Library-2
pull-down binding Z-score vs 0.06: at or above is TRUE, below is FALSE.

>  <SEQUENCE CONTENT>
UGGGGCGCGAUCAAAACAACGUCGGCCCCA

>  <LABEL>
TRUE

$$$$
>  <SEQUENCE CONTENT>
GGCUGUGGCCUAGGGCAAGCCACAAAGCC [hsa-mir-4642]

>  <LABEL>
FALSE

$$$$
>  <SEQUENCE CONTENT>
UAAUAGCAAUCCUUAAAUGCCAUUA [hsa-mir-4477b]

>  <LABEL>
FALSE

$$$$

Exercise: Form field: pull-down binding Z-score at least 0.06? Entry: UAUUCUGAUGUCCAAGUGGAAA [hsa-mir-372]
Key: FALSE

Exercise: Now try UCUUCAGGUUGGACAGCUGGUGCUGCAGCUUAUUAUGUGGGUUAUCUUCAACCUAGGA [DMSMaPseq_invitro_SARS-CoV-2_Multi_66_ComplexLevel_1] .
Key: FALSE

* * *

system: TO-3-N3-2 (biotin conjugate); assay: pull-down binding Z-score (relative to library population); higher = stronger binding; conditions: RNA library: Library-2
Values of pull-down binding Z-score greater than or equal to 0.03 map to Y; values below map to N.

Past entries and their recorded results:
>  <SEQUENCE CONTENT>
CGACUCCGUGGCAGAGUUCA [hsa-mir-3666]

>  <LABEL>
N

$$$$
>  <SEQUENCE CONTENT>
UGGAAGCUCCAGGUGCCAACCACCUGCCUCUA [hsa-mir-6731]

>  <LABEL>
N

$$$$
>  <SEQUENCE CONTENT>
UUUAUGUGAACUAAAAUAUAAA [hsa-mir-513c]

>  <LABEL>
N

$$$$
>  <SEQUENCE CONTENT>
CCCUAAGACUAAAAAUGUUACAAAAGAAAAUGACUCUAAAGAGGGUUUUUUCACUUACAUUUGUGGG [DMSMaPseq_invitro_SARS-CoV-2_Motif_371]

>  <LABEL>
N

$$$$
>  <SEQUENCE CONTENT>
UGUUUUUGCCAUUAAAAAUAAUGGCAUUAAAAGUAAUGGCAAAAACG [hsa-mir-548al]

>  <LABEL>
N

$$$$
>  <SEQUENCE CONTENT>
AUAGCACAAAGUCUUAUGGUACUGU [hsa-mir-3169]

>  <LABEL>
Y

$$$$

Exercise: I'd appreciate it if you could say whether UAUAUUCGGUUUAUUGACAUGGAAUAUA [hsa-mir-381] has pull-down binding Z-score at least equal to 0.03.
Key: Y

Exercise: What about this sequence? CAGCCUGGGGCAUCGGUUG [hsa-mir-5572]
Key: Y

* * *

tested on: TO-3-N3 (biotin conjugate); test: pull-down binding Z-score (relative to library population); higher = stronger binding; conditions: RNA library: Library-2
PARAMETER: pull-down binding Z-score
Output: the number by itself.

Example results:
>  <SEQUENCE CONTENT>
AUCAAGAAAAGAUUUGGUGUUCUUGAU [hsa-mir-4782]

>  <pull-down binding Z-score>
-0.152

$$$$
>  <SEQUENCE CONTENT>
GUUUAUGAAAAACUCAAACCCGUCCUUGAUUGGCUUGAAGAGAAGUUUAAGGAAGGUGUAGAGUUUCUUAGAGAC

>  <pull-down binding Z-score>
0.121

$$$$
>  <SEQUENCE CONTENT>
UUUGUACGGCACUGUGGCCACGUCCAAA [hsa-mir-497]

>  <pull-down binding Z-score>
-0.121

$$$$
>  <SEQUENCE CONTENT>
CACACUGGUGAGGUAACAGGAUCCGGUG [hsa-mir-182]

>  <pull-down binding Z-score>
0.159

$$$$

Exercise: Which pull-down binding Z-score is listed for GGAUGGUCUUCAAUCC [IAV_invivo_PB1_2_Motif_23+IAV_invivo_PB1_2_Motif_23] ?
Key: -0.481

Exercise: Similarly, UGAAGUAUUUUGUGAAAAUAGGACCUGAGCGCACCUGUUGUCUAUGUGAUAGACGUGCCACAUGCUUUUCCACUGCUUCA [SHAPE_invitro_SARS-CoV-2_Motif_342] ?
Key: -0.573

Exercise: Please do the same for GCGCUGCCAGAAACUGGCUUAGCGC [bulge-UU] as well.
Key: 0.63

Exercise: # iterate: GAUUUCUAUGAGAACAUC [hsa-mir-3675]
Key: -0.704

Exercise: Also check UCUAUUAAAAUAUAAUGA [DMSMaPseq_invitro_SARS-CoV-2_Motif_395]
Key: -0.0176
